biological target: HIV-1 pseudovirus X1193_c1 (HIV-1); assay: cell-based or functional assay
OBSERVABLE: IC50 (neutralization in TZM.bl cells)
Hey, just the number and the unit after it is fine.

Q: Provide IC50 (neutralization in TZM.bl cells) value for the following binder: MS-84 (antibody, V domains shown) VH: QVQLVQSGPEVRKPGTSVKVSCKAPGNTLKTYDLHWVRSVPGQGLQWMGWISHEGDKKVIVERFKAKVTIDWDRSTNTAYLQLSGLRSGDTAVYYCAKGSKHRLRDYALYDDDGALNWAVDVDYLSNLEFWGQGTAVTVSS VL: DFVLTQSPLSLPVTPGEPASISCKSSHSLIHGDRNNYLAWYVQKPGQSPQLLIYLASSRASGVPDRFSGSGSDKDFTLKISRVEAEDVGVYYCMQGRESPWTFGQGTKVDIKR
Ans: 0.058 µg/mL

Q: Provide IC50 (neutralization in TZM.bl cells) value for the following binder: MS-75 (antibody, V domains shown) VH: QVQLVQSGPEVRKPGTSVKVSCKASGNTLKTYDLHWVRSVPGQGLQWMGWISHEGDKKVIVERFKAKVTIDWDRSTNTAYLQLSGLTSGDTAVYYCAKGSKHRLRDYALYDDDGALNWAVDVDYLSNLEFWGQGTAVTVSS VL: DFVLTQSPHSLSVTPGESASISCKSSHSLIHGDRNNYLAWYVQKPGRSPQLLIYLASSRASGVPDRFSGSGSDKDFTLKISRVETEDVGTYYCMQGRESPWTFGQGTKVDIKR
Ans: 0.174 µg/mL

Q: Provide IC50 (neutralization in TZM.bl cells) value for the following binder: MS-76 (antibody, V domains shown) VH: QVQLVQSGPEVRKPGTSVKVSCKAPGYTLKTYDLHWVRSVPGQGLQWMGWISHEGDKKVIVERFKAKVTIDWDRSTNTAYLQLSGLTSGDTAVYYCAKGSKHRLRDYALYDDDGALNWAVDVDYLSNLEFWGQGTAVTVSS VL: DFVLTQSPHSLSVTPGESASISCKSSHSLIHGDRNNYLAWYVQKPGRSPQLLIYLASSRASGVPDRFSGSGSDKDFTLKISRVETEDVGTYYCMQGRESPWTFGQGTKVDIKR
Ans: 0.126 µg/mL

Q: Provide IC50 (neutralization in TZM.bl cells) value for the following binder: MS-88 (antibody, V domains shown) VH: QVQLVQSGPEVRKPGTSVKVSCKASGYTFKTYDLHWVRSVPGQGLQWMGWISHEGDKKVIVERFKAKVTITRDRSTNTAYLQLSGLTSGDTAVYYCAKGSKHRLRDYALYDDDGALNWAVDVDYLSNLEFWGQGTAVTVSS VL: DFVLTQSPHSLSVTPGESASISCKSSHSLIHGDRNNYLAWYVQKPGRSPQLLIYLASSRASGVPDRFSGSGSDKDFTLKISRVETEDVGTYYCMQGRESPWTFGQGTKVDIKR
Ans: 0.171 µg/mL

Q: Provide IC50 (neutralization in TZM.bl cells) value for the following binder: MS-91 (antibody, V domains shown) VH: QVQLVQSGPEVRKPGTSVKVSCKASGYTLKTYDLHWVRSVPGQGLQWMGWISHEGDKKVIVERFKAKVTIDWDRSTNTAYLQLSGLTSGDTAVYYCAKGSKHRLRDYALYDDDGALNWAVDVDYLSNLEFWGQGTAVTVSS VL: DFVLTQSPLSLSVTPGESASISCKSSHSLIHGDRNNYLAWYVQKPGRSPQLLIYLASSRASGVPDRFSGSGSDTDFTLKISRVETEDVGTYYCMQGRESPWTFGQGTKVDIKR
Ans: 0.057 µg/mL

Q: Provide IC50 (neutralization in TZM.bl cells) value for the following binder: MS-77 (antibody, V domains shown) VH: QVQLVQSGPEVRKPGTSVKVSCKAPGNTFKTYDLHWVRSVPGQGLQWMGWISHEGDKKVIVERFKAKVTIDWDRSTNTAYLQLSGLTSGDTAVYYCAKGSKHRLRDYALYDDDGALNWAVDVDYLSNLEFWGQGTAVTVSS VL: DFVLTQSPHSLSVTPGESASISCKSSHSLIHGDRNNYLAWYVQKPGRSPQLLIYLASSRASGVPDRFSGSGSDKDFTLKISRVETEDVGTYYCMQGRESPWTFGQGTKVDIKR
Ans: 0.109 µg/mL
